- target-under-test: T1, CaBdf1 BD1 (GST-tagged, wild-type) (Candida albicans (strain SC5314 / ATCC …, UniProt Q5A4W8))
- T1 chain: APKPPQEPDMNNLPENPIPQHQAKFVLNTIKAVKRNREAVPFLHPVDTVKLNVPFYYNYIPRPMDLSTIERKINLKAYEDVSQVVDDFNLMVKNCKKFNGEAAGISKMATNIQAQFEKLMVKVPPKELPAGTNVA
- test: histone peptide array (Active Motif MODified), 1 uM GST-tagged bromodomain, anti-GST detection, normalized mean intensity
Square brackets hold non-standard residues; d marks the D form. Ends that are not written are not given here. Arg(Me2a) = CN(C)C(=N)NCCC[C@H](N)C(=O)O; pT = C[C@@H](OP(=O)(O)O)[C@H](N)C(=O)O; pS = N[C@@H](COP(=O)(O)O)C(=O)O; Me2a = not defined here
observable: binding score

Examples from the recorded data:
Item: PRKQLATKAAR(Me2s)K(Me)SAPATGG | binding score: 0.00435

Item: ARTKQTARKSTGGKAPRKQ (A R T Kme1 Q T A Rme2a Kac S T G G K A P R K Q) | binding score: 0.0257

Item: PRKQLATKAAR(Me2a)K(Ac)[pS]APATGG (reading uncertain) | binding score: 0.0058

Item: SGRGKGGKGLGKGGAKRHR (S G R G K G G K G L G Kac G G A K R H R) | binding score: 0.033

Item: ARTKQTARKSTGGKAPRKQ (A R T Kme3 Q T A Rme2a Kme2 S T G G K A P R K Q) | binding score: 0.00254

Item: SGRGKGGKGLGKGGAKRHR (S G R G K G G Kac G L G Kac G G A Kac R H R) | binding score: 0.201

New cases:
Item: ARTKQTA[Arg(Me2a)]K(Me)[pS][pT]GGKAPRKQ | binding score: 0.00471
